Biological target: Bcl-2 protein (Recombinant Human Bcl-2 Protein) (Homo sapiens, UniProt P10415)
Construct: purchased Novus NBP2-34889
Sequence (P10415 whole entry): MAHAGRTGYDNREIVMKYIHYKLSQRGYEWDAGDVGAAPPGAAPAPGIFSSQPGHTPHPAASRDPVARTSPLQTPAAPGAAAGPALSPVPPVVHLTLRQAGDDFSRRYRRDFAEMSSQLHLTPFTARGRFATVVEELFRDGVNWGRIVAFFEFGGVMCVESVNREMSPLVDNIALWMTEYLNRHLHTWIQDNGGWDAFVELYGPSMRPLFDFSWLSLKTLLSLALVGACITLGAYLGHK
Experiment: Binding evaluation of mixture library compounds to Bcl-2 using AS-MS (affinity selection mass spectrometry)
Conditions: AS-MS on the mixture of 1200 library compounds; ASMS Ratio(%)=(A−C)/B×100; replicate n = 1
Below: a set of entries, each annotated with reported ASMS ratio (%) n = 1.
Numeric answer only, unit % assumed.

# count of solved cases: 6
- smiles_entry: "CCOc1cncc(-c2cnn(-c3cc(C(=O)N4CCN(c5ccc(C(=O)Nc6ccc(OC)cc6)cc5)CC4)cc(C(F)(F)F)c3)c2)c1"
  target: "Bcl-2 protein (Recombinant Human Bcl-2 Protein) (Homo sapiens, UniProt P10415)"
  ASMS ratio (%) n = 1: 5.8
- smiles_entry: "CCOc1cccc(-c2csc(C(=O)N3CCN(c4ccc(C(=O)Nc5ccc(OC)cc5)cc4)CC3)c2)c1"
  target: "Bcl-2 protein (Recombinant Human Bcl-2 Protein) (Homo sapiens, UniProt P10415)"
  ASMS ratio (%) n = 1: 12.4
- smiles_entry: "CCOc1cncc(-c2cc(CN3CCN(c4ccc(C(=O)N(C)CC56CC7CC(CC(C7)C5)C6)nn4)CC3)cc(OCC)c2)c1"
  target: "Bcl-2 protein (Recombinant Human Bcl-2 Protein) (Homo sapiens, UniProt P10415)"
  ASMS ratio (%) n = 1: "−0.9"
- smiles_entry: "CCOc1cccc(-c2cc(CN3CCN(c4ccc(C(=O)N(C)CC56CC7CC(CC(C7)C5)C6)cc4)CC3)cc(OC(C)C)c2)c1"
  target: "Bcl-2 protein (Recombinant Human Bcl-2 Protein) (Homo sapiens, UniProt P10415)"
  ASMS ratio (%) n = 1: 6.3
- smiles_entry: "CCOc1cncc(-c2cnn(-c3cc(C(=O)N4CCN(c5ccc(C(=O)N(C)CC67CC8CC(CC(C8)C6)C7)nn5)CC4)cc(C(F)(F)F)c3)c2)c1"
  target: "Bcl-2 protein (Recombinant Human Bcl-2 Protein) (Homo sapiens, UniProt P10415)"
  ASMS ratio (%) n = 1: 4.9
- smiles_entry: "CCOc1cccc(-c2ccc(C(=O)N3CCN(c4ccc(C(=O)Nc5ccc(OC)cc5)cc4)CC3)cc2F)c1"
  target: "Bcl-2 protein (Recombinant Human Bcl-2 Protein) (Homo sapiens, UniProt P10415)"
  ASMS ratio (%) n = 1: 3.8

Now for another entry.
# input compound: CCOc1cccc(-c2cc(CN3CCN(c4ccc(C(=O)Nc5ccc(OC)cc5)nn4)CC3)cc(OCC)c2)c1 ; wanted: its ASMS ratio (%) n = 1
3.2
